Measured IC50 (UniProtKB P23458)
Sequence (P23458 whole entry): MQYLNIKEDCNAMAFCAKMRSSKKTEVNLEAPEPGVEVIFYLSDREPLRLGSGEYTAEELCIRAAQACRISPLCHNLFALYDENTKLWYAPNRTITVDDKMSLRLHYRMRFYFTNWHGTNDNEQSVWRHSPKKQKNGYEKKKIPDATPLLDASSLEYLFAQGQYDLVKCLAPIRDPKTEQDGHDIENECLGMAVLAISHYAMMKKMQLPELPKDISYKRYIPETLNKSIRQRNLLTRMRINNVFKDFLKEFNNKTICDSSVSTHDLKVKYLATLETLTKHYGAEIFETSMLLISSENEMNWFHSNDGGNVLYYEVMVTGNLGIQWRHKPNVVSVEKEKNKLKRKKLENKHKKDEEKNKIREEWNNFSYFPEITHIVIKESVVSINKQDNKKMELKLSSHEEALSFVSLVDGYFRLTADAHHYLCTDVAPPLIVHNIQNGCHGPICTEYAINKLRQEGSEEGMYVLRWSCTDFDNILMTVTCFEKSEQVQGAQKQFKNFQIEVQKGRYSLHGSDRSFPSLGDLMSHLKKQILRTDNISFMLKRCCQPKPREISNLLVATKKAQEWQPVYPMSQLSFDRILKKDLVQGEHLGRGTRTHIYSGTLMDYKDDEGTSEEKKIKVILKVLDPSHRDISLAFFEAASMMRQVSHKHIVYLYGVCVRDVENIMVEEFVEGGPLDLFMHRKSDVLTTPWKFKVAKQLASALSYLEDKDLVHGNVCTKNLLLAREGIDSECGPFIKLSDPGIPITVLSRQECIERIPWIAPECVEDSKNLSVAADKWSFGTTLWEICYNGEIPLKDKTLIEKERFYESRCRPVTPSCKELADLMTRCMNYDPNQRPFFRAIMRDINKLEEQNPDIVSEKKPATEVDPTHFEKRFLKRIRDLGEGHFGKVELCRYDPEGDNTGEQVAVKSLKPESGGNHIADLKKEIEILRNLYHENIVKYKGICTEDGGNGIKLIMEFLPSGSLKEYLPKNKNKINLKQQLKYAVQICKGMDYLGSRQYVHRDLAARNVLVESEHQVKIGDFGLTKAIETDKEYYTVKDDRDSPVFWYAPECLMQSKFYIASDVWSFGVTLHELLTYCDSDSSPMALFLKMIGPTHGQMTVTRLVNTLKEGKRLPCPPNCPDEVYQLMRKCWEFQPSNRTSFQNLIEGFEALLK

| chemical-structure | IC50 |
| --- | --- |
| CN(C)C/C=C/C(=O)Nc1cc2cc(c1)Nc1nccc(n1)-c1cccc(c1)COC/C=C/CN(C)C2 | 136 nM |
| C/C=C/C(=O)Nc1cc2cc(c1)Nc1nccc(n1)-c1cccc(c1)COC/C=C/COC2 | 44 nM |

## Input Check the records and state IC50 for C#CC(=O)Nc1cc2cc(c1)Nc1nccc(n1)-c1cccc(c1)COC/C=C/COC2
## Output 33 nM

## Input Check the records and state IC50 for CN(C)C/C=C/C(=O)Nc1cc2cc(c1)Nc1nccc(n1)-c1cccc(c1)COC/C=C/COC2
## Output 262 nM

## Input Check the records and state IC50 for O=C(O)/C=C/C(=O)Nc1cc2cc(c1)Nc1nccc(n1)-c1cccc(c1)COC/C=C/COC2
## Output 19 nM

## Input Check the records and state IC50 for O=C(/C=C/CN1CCCC1)Nc1cc2cc(c1)Nc1nccc(n1)-c1cccc(c1)COC/C=C/COC2
## Output 69 nM

* * *

Test system: Karpas-299 Human anaplastic large cell lymphoma cells
measurement-notes: MTT cell proliferation inhibition, Karpas-299
Assay type: cell-based
condition-label: Karpas-299, 72 hours
parameter-measured: pIC50
On this scale, pIC50 is minus log10 of a concentration expressed in M (mol/L).

| chemical-structure | experimental-target | pIC50 |
| --- | --- | --- |
| O=C(/C=C/CN1CCOCC1)Nc1cc2cc(c1)Nc1nccc(n1)-c1cccc(c1)COC/C=C/COC2 | Karpas-299 Human anaplastic large cell lymphoma cells | 5.93 |

## Input Check the records and state pIC50 for O=C(/C=C/CN1CCCC1)Nc1cc2cc(c1)Nc1nccc(n1)-c1cccc(c1)COC/C=C/COC2
## Output 6.88

* * *

Overview of recorded activity at 1 µM for various compounds
experimental-target: Ab1 (h) (Homo sapiens)
Construct: purchased Eurofins
Sequence (P00519 whole entry): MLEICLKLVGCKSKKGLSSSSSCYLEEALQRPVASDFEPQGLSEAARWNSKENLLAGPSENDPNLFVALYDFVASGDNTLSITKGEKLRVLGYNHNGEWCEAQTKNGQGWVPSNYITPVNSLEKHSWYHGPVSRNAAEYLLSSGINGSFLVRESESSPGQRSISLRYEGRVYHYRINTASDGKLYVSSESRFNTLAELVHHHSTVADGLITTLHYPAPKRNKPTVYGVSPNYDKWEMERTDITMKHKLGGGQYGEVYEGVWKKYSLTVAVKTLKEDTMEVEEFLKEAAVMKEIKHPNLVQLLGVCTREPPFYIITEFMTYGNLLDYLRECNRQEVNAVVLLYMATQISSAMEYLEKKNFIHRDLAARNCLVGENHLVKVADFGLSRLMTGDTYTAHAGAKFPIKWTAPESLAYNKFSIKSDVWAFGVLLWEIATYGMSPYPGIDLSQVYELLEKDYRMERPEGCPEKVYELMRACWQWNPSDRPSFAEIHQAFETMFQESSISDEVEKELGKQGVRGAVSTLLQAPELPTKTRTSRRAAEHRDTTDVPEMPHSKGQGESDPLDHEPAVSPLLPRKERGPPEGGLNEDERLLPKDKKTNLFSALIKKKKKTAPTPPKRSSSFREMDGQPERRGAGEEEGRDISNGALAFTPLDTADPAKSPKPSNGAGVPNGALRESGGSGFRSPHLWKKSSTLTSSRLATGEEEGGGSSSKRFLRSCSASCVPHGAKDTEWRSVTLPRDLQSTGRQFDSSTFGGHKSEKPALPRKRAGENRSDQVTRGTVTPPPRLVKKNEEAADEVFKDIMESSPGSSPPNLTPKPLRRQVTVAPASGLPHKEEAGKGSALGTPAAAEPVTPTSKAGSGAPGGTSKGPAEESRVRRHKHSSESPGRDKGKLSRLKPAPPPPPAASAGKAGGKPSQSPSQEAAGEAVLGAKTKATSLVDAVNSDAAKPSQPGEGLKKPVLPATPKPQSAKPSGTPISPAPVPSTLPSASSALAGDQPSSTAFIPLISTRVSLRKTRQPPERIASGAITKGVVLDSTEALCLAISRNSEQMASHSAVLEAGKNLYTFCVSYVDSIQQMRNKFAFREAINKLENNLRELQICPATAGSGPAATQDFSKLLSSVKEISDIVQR
measurement-notes: Radioisotope labeling kinase assay (Eurofins), Ab1
Type: biochemical
condition-label: 1 μM compound; read-out: Inhibitory activity per unit concentration/Activity % Ab1 (h)
Only the number, expressed in %, is required.

Worked cases, activity at 1 µM given:
| compound | activity at 1 µM, % |
| --- | --- |
| C1=C/COCc2cccc(c2)-c2ccnc(n2)Nc2cc(cc(OC/C=C/CN3CCOCC3)c2)COC/1 [XVI-16] | 19 |
| O=C(/C=C/COc1cc2cc(c1)Nc1nccc(n1)-c1cccc(c1)COC/C=C/COC2)N1CCCC1 [XVI-13] | 39 |
| C1=C/COCc2ccc(O/C=C/CN3CCCC3)c(c2)Nc2nccc(n2)-c2cccc(c2)CCC/1 [XVI-34] | 98 |

## Input Check the records and state activity at 1 µM for C/C=C/C(=O)Nc1cc2cc(c1)Nc1nccc(n1)-c1cccc(c1)COC/C=C/COC2 [XVI-4]
## Output 11

## Input Check the records and state activity at 1 µM for N#Cc1ccc(/C=C/C(=O)Nc2cc3cc(c2)Nc2nccc(n2)-c2cccc(c2)COC/C=C/COC3)cc1 [XVI-2]
## Output 42

## Input Check the records and state activity at 1 µM for O=C(/C=C/COc1ccc2cc1Nc1nccc(n1)-c1cccc(c1)COC/C=C/COC2)N1CCCC1 [XVI-21]
## Output 92

## Input Check the records and state activity at 1 µM for NC1CCN(C/C=C/C(=O)Nc2cc3cc(c2)Nc2nccc(n2)-c2cccc(c2)COC/C=C/COC3)C1 (stereo not shown) [XVI-17]
## Output -4

* * *

experimental-target: JAK3 (h) (Homo sapiens, UniProt P52333)
Construct: purchased Eurofins
Sequence (P52333 whole entry): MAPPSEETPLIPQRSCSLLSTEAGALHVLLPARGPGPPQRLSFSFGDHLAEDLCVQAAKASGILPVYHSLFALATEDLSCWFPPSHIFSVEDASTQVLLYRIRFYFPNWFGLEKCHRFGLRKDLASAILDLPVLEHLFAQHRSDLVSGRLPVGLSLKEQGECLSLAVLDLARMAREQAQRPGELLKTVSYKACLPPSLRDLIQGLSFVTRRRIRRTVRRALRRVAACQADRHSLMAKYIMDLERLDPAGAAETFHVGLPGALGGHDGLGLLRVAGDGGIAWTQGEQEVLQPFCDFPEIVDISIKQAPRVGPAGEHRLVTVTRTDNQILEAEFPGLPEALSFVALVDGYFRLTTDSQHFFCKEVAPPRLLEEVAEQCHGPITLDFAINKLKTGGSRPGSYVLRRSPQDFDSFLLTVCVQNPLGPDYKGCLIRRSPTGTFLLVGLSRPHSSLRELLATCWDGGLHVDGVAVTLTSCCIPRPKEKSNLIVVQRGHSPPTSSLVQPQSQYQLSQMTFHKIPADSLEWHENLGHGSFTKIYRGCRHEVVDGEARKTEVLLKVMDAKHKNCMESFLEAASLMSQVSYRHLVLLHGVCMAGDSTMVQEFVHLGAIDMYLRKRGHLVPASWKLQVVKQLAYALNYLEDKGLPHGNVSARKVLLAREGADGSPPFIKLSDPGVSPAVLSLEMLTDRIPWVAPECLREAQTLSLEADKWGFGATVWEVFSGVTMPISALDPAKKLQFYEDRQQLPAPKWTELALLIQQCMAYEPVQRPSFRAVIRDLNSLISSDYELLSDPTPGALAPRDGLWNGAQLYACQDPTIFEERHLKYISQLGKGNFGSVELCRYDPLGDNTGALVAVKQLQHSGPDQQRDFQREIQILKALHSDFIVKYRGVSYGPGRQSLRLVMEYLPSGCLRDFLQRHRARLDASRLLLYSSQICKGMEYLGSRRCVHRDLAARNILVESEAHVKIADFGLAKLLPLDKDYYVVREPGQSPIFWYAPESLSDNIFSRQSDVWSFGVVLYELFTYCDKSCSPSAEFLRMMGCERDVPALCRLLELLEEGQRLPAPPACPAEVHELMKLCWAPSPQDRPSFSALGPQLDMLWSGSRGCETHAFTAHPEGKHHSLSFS
measurement-notes: Radioisotope labeling kinase assay (Eurofins), JAK3
Type: biochemical
condition-label: 1 μM compound; read-out: Inhibitory activity per unit concentration/Activity % JAK3 (h)
parameter-measured: activity at 1 µM
Reply with the number and its unit after it.

Worked cases, activity at 1 µM given:
| compound | experimental-target | activity at 1 µM |
| --- | --- | --- |
| CN1C/C=C/COCc2cccc(c2)-c2ccnc(n2)Nc2cc(cc(NC(=O)/C=C/c3ccc(C#N)cc3)c2)C1 | JAK3 (h) (Homo sapiens, UniProt P52333) | 52% |
| CN1C/C=C/COCc2cccc(c2)-c2ccnc(n2)Nc2cc(cc(NC(=O)C#CCN3CCOCC3)c2)C1 | JAK3 (h) (Homo sapiens, UniProt P52333) | 60% |
| O=C(/C=C/CN1CCC(O)C1)Nc1cc2cc(c1)Nc1nccc(n1)-c1cccc(c1)COC/C=C/COC2 (stereo not shown) | JAK3 (h) (Homo sapiens, UniProt P52333) | 8% |
| O=C(O)/C=C/C(=O)Nc1cc2cc(c1)Nc1nccc(n1)-c1cccc(c1)COC/C=C/COC2 | JAK3 (h) (Homo sapiens, UniProt P52333) | 4% |
| C1=C/COCc2ccc(OC/C=C/CN3CCOCC3)c(c2)Nc2nccc(n2)-c2cccc(c2)COC/1 | JAK3 (h) (Homo sapiens, UniProt P52333) | 10% |
| C1=C/COCc2cccc(c2)-c2ccnc(n2)Nc2cc(cc(OC/C=C/CN3CCOCC3)c2)COC/1 | JAK3 (h) (Homo sapiens, UniProt P52333) | 32% |

## Input Check the records and state activity at 1 µM for CN1CCC(NC(=O)/C=C/COc2ccc3cc2Nc2nccc(n2)-c2cccc(c2)COC/C=C/COC3)C1 (stereo not shown)
## Output 88%

* * *

experimental-target: Flt3 (D835Y) (h) (Homo sapiens, UniProt P36888, D835Y)
measurement-notes: Radioisotope labeling kinase assay (Eurofins), Flt3 (D835Y)
Overview of recorded IC50 for various compounds
Only the number, expressed in nM, is required.

Worked cases, IC50 given:
| compound | IC50 (nM) |
| --- | --- |
| O=C(O)/C=C/C(=O)Nc1cc2cc(c1)Nc1nccc(n1)-c1cccc(c1)COC/C=C/COC2 [XVI-9] | 5 |
| O=C(/C=C/CN1CCCC1)Nc1cc2cc(c1)Nc1nccc(n1)-c1cccc(c1)COC/C=C/COC2 [XVI-1] | 3 |
| C=CC(=O)Nc1cc2cc(c1)Nc1nccc(n1)-c1cccc(c1)COC/C=C/COC2 [XVI-6] | 10 |
| CN(C)C/C=C/C(=O)Nc1cc2cc(c1)Nc1nccc(n1)-c1cccc(c1)COC/C=C/COC2 [XVI-8] | 9 |

## Input Check the records and state IC50 for O=C(/C=C/C(=O)N1CCNCC1)Nc1cc2cc(c1)Nc1nccc(n1)-c1cccc(c1)COC/C=C/COC2 [XVI-11]
## Output 6

* * *

Tested on: U266 Human myeloma cells
measurement-notes: MTT cell proliferation inhibition, U266
Format: cell-based
condition-label: U-266, U266, 72 hours
Overview of recorded IC50 for various compounds
Only the number, expressed in nM, is required.

| chemical-structure | IC50 / nM |
| --- | --- |
| O=C(/C=C/CN1CCOCC1)Nc1cc2cc(c1)Nc1nccc(n1)-c1cccc(c1)COC/C=C/COC2 | 2700 |

Now for the compound whose IC50 we want.
## Input Check the records and state IC50 for O=C(/C=C/CN1CCCC1)Nc1cc2cc(c1)Nc1nccc(n1)-c1cccc(c1)COC/C=C/COC2
## Output 614

* * *

experimental-target: Ret (V804M) (h) (Homo sapiens, UniProt P07949, V804M)
Sequence (P07949 29-1114 V804M): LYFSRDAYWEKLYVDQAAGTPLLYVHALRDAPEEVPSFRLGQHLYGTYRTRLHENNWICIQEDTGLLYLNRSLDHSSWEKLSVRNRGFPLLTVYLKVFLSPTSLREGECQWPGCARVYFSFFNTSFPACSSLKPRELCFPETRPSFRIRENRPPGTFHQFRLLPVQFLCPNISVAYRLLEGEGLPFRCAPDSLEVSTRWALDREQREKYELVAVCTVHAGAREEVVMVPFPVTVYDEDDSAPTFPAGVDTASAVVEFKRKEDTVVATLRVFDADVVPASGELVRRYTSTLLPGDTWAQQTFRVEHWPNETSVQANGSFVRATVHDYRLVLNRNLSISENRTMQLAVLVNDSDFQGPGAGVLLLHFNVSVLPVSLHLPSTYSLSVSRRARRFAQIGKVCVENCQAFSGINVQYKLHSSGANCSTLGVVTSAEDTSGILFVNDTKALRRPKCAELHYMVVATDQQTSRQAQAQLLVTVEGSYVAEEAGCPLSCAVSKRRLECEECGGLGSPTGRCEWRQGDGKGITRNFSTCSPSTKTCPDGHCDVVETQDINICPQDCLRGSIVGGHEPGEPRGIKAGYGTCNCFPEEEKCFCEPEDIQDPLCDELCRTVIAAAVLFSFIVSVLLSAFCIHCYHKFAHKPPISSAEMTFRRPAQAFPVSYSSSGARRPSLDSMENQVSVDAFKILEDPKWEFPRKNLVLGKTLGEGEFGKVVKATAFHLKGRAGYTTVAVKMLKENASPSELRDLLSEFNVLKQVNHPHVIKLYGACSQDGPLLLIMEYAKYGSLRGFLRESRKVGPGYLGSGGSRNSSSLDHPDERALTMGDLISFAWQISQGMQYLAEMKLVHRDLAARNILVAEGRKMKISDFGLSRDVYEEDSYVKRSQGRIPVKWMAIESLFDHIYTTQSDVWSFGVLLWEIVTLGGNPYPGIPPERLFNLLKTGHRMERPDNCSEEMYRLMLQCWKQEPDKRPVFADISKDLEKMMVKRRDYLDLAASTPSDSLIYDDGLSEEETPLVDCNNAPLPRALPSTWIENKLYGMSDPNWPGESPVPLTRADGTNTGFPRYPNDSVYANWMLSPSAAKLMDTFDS
measurement-notes: Radioisotope labeling kinase assay (Eurofins), Ret (V804M)
parameter-measured: IC50 (nM)
Only the number, expressed in nM, is required.

## Input Check the records and state IC50 for C1=C/COCc2cccc(c2)-c2ccnc(n2)Nc2cc(cc(OC/C=C/CN3CCCC3)c2)COC/1
## Output 122

* * *

Measured IC50 (Ret (h) (Homo sapiens, UniProt P07949))
Reply with the number and its unit after it.

Worked cases, IC50 given:
| molecule | IC50 |
| --- | --- |
| C=CC(=O)Nc1cc2cc(c1)Nc1nccc(n1)-c1cccc(c1)COC/C=C/COC2 [XVI-6] | 202 nM |
| O=C(/C=C/CN1CCCC1)Nc1cc2cc(c1)Nc1nccc(n1)-c1cccc(c1)COC/C=C/COC2 [XVI-1] | 66 nM |
| C/C=C/C(=O)Nc1cc2cc(c1)Nc1nccc(n1)-c1cccc(c1)COC/C=C/CN(C)C2 [XVI-28] | 1980 nM |

Now for the molecule whose IC50 we want.
## Input Send back Ret (h) (Homo sapiens, UniProt P07949) IC50 of C/C=C/C(=O)Nc1cc2cc(c1)Nc1nccc(n1)-c1cccc(c1)COC/C=C/COC2 [XVI-4] only.
## Output 314 nM

* * *

experimental-target: Flt3 (h) (Homo sapiens)
Construct: purchased Eurofins
Sequence (P36888 27-993): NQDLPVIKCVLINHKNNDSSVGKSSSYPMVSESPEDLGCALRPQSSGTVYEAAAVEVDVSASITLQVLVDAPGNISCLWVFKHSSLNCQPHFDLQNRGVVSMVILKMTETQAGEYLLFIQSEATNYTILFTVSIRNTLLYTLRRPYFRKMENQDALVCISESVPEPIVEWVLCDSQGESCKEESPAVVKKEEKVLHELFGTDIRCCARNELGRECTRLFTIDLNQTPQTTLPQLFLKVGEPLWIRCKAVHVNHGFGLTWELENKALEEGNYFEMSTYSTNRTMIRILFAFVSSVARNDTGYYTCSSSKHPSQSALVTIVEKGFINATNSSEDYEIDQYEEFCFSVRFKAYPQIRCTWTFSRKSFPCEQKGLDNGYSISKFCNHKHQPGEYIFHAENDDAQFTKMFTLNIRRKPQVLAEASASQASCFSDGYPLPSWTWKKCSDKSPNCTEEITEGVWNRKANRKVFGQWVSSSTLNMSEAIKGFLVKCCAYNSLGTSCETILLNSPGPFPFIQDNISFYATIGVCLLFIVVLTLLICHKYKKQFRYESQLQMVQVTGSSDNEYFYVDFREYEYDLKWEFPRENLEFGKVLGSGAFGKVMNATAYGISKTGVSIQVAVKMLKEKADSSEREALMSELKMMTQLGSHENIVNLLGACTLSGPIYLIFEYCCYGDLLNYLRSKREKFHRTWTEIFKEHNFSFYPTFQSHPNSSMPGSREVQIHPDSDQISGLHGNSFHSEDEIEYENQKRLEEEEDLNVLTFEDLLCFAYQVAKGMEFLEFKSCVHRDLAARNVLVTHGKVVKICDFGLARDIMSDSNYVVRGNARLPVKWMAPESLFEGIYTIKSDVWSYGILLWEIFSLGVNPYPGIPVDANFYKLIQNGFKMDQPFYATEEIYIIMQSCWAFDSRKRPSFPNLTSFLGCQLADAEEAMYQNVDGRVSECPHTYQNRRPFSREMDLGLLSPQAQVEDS
measurement-notes: Radioisotope labeling kinase assay (Eurofins), Flt3
Format: biochemical
condition-label: 1 μM compound; read-out: Inhibitory activity per unit concentration/Activity % Flt3 (h)
# binning rule on activity at 1 µM: low interval = under 5%, middle interval = from 5% up to 20%, high interval = 20% and over

Worked examples follow.
| compound | experimental-target | category |
| --- | --- | --- |
| O=C(/C=C/CN1CCCC1)Nc1cc2cc(c1)Nc1nccc(n1)-c1cccc(c1)COC/C=C/COC2 | Flt3 (h) (Homo sapiens) | low interval |
| O=C(/C=C/COc1cc2cc(c1)Nc1nccc(n1)-c1cccc(c1)COC/C=C/COC2)N1CCOCC1 | Flt3 (h) (Homo sapiens) | middle interval |
| Nc1cc2cc(c1)Nc1nccc(n1)-c1cccc(c1)COC/C=C/COC2 | Flt3 (h) (Homo sapiens) | low interval |
| O=C(/C=C/COc1ccc2cc1Nc1nccc(n1)-c1cccc(c1)COC/C=C/COC2)N1CCOCC1 | Flt3 (h) (Homo sapiens) | high interval |
| O=C(/C=C/C(=O)N1CCNCC1)Nc1cc2cc(c1)Nc1nccc(n1)-c1cccc(c1)COC/C=C/COC2 | Flt3 (h) (Homo sapiens) | low interval |

## Input Input O=C(/C=C/C(=O)N1CCCC1)Nc1cc2cc(c1)Nc1nccc(n1)-c1cccc(c1)COC/C=C/COC2 ; output its category
## Output low interval

## Input Input O=C(/C=C/CNC1CCOC1)Nc1cc2cc(c1)Nc1nccc(n1)-c1cccc(c1)CCC/C=C/COC2 (stereo not drawn) ; output its category
## Output high interval

## Input Input C1=C/COCc2ccc(O/C=C/CN3CCCC3)c(c2)Nc2nccc(n2)-c2cccc(c2)CCC/1 ; output its category
## Output high interval

## Input Input N#Cc1ccc(/C=C/C(=O)Nc2cc3cc(c2)Nc2nccc(n2)-c2cccc(c2)COC/C=C/COC3)cc1 ; output its category
## Output middle interval

## Input Input O=C(O)/C=C/C(=O)Nc1cc2cc(c1)Nc1nccc(n1)-c1cccc(c1)COC/C=C/COC2 ; output its category
## Output low interval
